- Tested on: CEM cells HIV-1 protection, formazan growth assay
- RUN DESCRIPTION: NCI AIDS Antiviral Assay
- PARTICULARS: measured here: growth of uninfected CEM cells
- Description: The ability of compounds to protect human CEM cells from HIV-1 infection is measured as a screen for new compounds capable of inhibiting the HIV virus. Five concentrations of drug were tested on uninfected and infected cells and cell growth was measured using a soluble formazan assay. […] Compounds that provided at least 50% protection were retested. Compounds that provided at least 50% protection on retest were listed as moderately active. […]
pIC50: −log10 of the molar value.

# MOLECULE, LT GT EQ, pIC50
rows = [
    ("N#Cc1ccc(NC(=NCC(=O)O)Nc2cccc3ccccc23)cc1", "<", 3.70),
    ("O=C1[C@@H](O)[C@@H]2CCCC[C@@]23CCCN13", "<", 3.70),
    ("Cc1cc(S(=O)(=O)NC2=NC(c3ccccc3)c3ccccc3N2)c(S)cc1Cl (configuration not stated)", "<", 3.70),
    ("O=CC(O)C(O)C(O)C1CNC(=S)O1 (configuration not stated)", "<", 3.70),
    ("CC(=O)NC(CCC(=O)C=[N+]=N)C(=O)O (configuration not stated)", "=", 4.53),
    ("O=C(Cc1ccccc1)ONC(CCCCNC(=O)OCc1ccccc1)C(=O)Nc1ccc(Cc2ccc(NC(=O)C(CCCCNC(=O)OCc3ccccc3)NC(=O)OCc3ccccc3)cc2)cc1 (configuration not stated)", "<", 4.00),
    ("Cc1noc(/N=C2\\C=C(Nc3onc(C)c3C)C(=O)c3ccccc32)c1C", "<", 5.56),
    ("CC(C)[C@@H]1CC[C@@H](C)C[C@H]1OC(=O)/C=C1/C2C=CC(O2)C1C(=O)O[C@@H]1C[C@H](C)CC[C@H]1C(C)C (some centres not stated)", "<", 3.70),
    ("Cc1oc2c(c(C)nn2-c2ccccc2)c(=O)c1Cl", "=", 3.76),
    ("O=C(CCCC1Cc2ccccc2C1=O)c1ccccc1 (configuration not stated)", "=", 4.04),
    ("Cn1c2ccccc2c2ccc3c(c21)C(=O)C=CC3=O", "=", 5.87),
    ("O=C1NC(=O)[C@@]2(CCOc3ccc(F)cc32)N1", "=", 3.18),
    ("COc1ccc(N=Nc2c(C)c(C#N)c(=S)n(C3OC(CO)C(O)C(O)C3O)c2-c2ccccc2)cc1 (configuration not stated)", "=", 4.55),
    ("Oc1ccc2ccc3c(c2c1)CN(Cc1ccccc1)CO3", "<", 4.61),
    ("CC(=O)c1c(N=[N+]=[N-])c2cccc3c2n(c1=O)CCC3", "=", 4.51),
    ("N#Cc1[nH]c(=S)[nH]c1N", "=", 3.93),
    ("O=[N+]([O-])C(C(Cl)=C(Cl)Cl)=C(N1CCCCC1)N1CCCCC1", "=", 3.73),
    ("CCCCCCCCCCCCCCCC=C(c1cc(Cl)c(O)c(C(=O)O)c1)c1cc(Cl)c(O)c(C(=O)O)c1", "=", 4.46),
    ("CN1CN(c2ccccc2)C2(CCN(CCCC3(c4cccs4)OCCO3)CC2)C1=O", "=", 3.97),
    ("Cc1[nH]c2nccn2c(=O)c1CCCl", "=", 4.94),
    ("Cn1cc(NC(=O)c2cc(NC(=O)c3cc(NC(=O)/C=C/C(=O)Nc4cn(C)c(C(=O)Nc5cn(C)c(C(=O)Nc6cn(C)c(C(=O)NCCC(=N)N)n6)n5)n4)cn3C)cn2C)cc1C(=O)NCCC(=N)N", "=", 5.84),
    ("CCCCCC1=CC(=O)C1(Cl)Cl", "=", 4.56),
    ("O=c1[nH]c(=O)n(C2COC(CO)C2O)cc1F (configuration not stated)", "=", 5.22),
    ("CNC(=O)N(C)C(=O)c1ccccc1C(=O)N(C)C(=O)NC", "<", 3.70),
    ("N#CSc1nc[nH]c1C(N)=O", "=", 5.00),
    ("COc1ccc(/C=C2\\N=C(SC)N(CN3CCOCC3)C2=O)cc1", "=", 4.53),
    ("CCCCCCCCCCCCOC(=N)N(C)C", "=", 5.70),
    ("O=C(N/N=C/c1ccccc1O)c1ccccc1O", "=", 5.63),
    ("O=CC12C3CCC1C2C(=O)C3 (configuration not stated)", "<", 3.70),
    ("C/C(=N/NC(=O)c1ccccc1O)c1ccc(/C(C)=N\\NC(=O)c2ccccc2O)c2nc3cc(C)c(C)cc3nc12", "<", 4.19),
    ("COCN1C(=O)[C@@H]2C[C@@H](O)CN2C(=O)c2ccccc21", "<", 3.70),
    ("CCN(CC)CCC1CCCCN1CC(=O)N1c2ccccc2NC(=O)c2ccccc21 (configuration not stated)", "<", 3.70),
    ("CC(C)(C)OC(=O)NNCC(O)COc1ccccc1 (configuration not stated)", "=", 4.04),
    ("CCOC(=O)CCC(NC(=O)c1ccc(NCc2ccc3nc(-c4ccccc4)c(Cl)nc3c2)cc1)C(=O)OCC (configuration not stated)", "<", 5.32),
    ("CN(C)c1ccc(C(Cc2ccccc2)C2NC(=S)NC2=O)cc1 (configuration not stated)", "=", 4.81),
    ("O=[N+]([O-])c1cc(Cc2cc(Cl)c(O)c([N+](=O)[O-])c2)cc(Cl)c1O", "=", 4.45),
    ("COc1c(C(=O)c2cc(Cl)cc(S(=O)(=O)N(C)C=O)c2OC)cc(Cl)cc1S(=O)(=O)N(C)C=O", "<", 4.33),
    ("COc1ccccc1/C=C(/C(=O)c1ccccc1)c1ccccc1", "<", 5.06),
    ("CC1=C[C@H]2O[C@H]3C[C@H]4OC(=O)/C=C\\C=C\\C(=O)OCC[C@@H](C)C(O)C(=O)OC[C@@]2(CC1)[C@@]4(C)[C@]31CO1 (some centres not stated)", "=", 7.95),
    ("CCN(CC)C(=O)Cn1c(C)cc2ccccc21", "<", 3.70),
    ("Cc1nc2ccccc2c2c(N)cccc12", "<", 3.70),
    ("CC(CCC(=O)O)[C@H]1CCC2[C@H]3C(CC(=O)[C@@]21C)[C@@]1(C)CCC(O)C[C@H]1C[C@@H]3O (some centres not stated)", "<", 3.70),
]
